Data provenance is ChEMBL document CHEMBL1201862.

Reported EC50 values for the following compounds.
# study-target: Peroxisome proliferator-activated receptor gamma/Nuclear receptor coactivator 3 (Homo sapiens)
# Sequence (P37231 whole entry): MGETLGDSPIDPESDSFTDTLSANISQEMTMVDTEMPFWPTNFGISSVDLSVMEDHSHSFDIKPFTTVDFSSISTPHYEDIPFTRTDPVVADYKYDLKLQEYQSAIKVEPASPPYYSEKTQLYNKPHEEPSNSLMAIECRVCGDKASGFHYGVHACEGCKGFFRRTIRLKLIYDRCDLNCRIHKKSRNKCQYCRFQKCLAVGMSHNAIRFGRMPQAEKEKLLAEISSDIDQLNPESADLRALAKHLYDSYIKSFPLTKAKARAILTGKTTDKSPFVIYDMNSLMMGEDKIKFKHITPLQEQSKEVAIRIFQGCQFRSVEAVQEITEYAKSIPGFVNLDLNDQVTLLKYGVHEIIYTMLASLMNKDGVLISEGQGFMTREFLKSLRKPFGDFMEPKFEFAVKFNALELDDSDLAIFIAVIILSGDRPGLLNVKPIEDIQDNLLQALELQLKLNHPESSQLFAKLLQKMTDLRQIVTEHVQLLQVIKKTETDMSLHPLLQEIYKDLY
# Sequence (Q9Y6Q9 whole entry, further chain): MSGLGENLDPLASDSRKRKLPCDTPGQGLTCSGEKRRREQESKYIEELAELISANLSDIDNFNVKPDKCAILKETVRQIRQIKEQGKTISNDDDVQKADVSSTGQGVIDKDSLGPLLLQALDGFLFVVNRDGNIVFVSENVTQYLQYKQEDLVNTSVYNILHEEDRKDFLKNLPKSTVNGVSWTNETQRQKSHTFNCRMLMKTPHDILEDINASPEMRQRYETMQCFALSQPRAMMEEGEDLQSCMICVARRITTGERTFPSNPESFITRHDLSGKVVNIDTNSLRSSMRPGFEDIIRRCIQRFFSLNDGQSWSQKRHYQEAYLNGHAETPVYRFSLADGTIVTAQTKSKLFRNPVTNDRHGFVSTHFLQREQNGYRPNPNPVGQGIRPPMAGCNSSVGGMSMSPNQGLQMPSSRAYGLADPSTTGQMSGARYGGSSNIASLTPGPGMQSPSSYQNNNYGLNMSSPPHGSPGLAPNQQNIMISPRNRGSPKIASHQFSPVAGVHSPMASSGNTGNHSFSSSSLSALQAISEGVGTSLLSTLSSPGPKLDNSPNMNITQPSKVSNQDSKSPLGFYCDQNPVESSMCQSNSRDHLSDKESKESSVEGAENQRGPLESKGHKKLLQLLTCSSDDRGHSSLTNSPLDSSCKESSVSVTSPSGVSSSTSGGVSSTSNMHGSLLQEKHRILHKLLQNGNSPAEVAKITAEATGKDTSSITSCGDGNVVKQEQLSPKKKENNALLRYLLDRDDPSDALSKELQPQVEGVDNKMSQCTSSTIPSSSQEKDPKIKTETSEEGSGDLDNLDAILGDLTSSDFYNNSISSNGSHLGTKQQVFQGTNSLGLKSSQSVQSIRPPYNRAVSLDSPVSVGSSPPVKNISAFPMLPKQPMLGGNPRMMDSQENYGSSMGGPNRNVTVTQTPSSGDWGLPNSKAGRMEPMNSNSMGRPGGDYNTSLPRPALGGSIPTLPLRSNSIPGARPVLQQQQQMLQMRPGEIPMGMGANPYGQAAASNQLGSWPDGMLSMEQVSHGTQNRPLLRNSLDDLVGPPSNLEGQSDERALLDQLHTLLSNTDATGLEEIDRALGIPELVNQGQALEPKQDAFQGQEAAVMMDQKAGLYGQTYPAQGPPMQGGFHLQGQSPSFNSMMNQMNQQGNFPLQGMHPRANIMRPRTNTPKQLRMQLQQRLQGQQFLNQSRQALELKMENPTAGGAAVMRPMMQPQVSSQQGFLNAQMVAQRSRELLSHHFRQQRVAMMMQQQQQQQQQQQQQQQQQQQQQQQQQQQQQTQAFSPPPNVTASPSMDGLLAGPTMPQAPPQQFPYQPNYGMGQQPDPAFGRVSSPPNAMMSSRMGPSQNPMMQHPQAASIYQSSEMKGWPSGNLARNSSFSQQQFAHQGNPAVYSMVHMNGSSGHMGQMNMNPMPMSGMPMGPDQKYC
# measurement-description: TR-FRET dose response biochemical High Throughput Screening assay for agonists of the steroid receptor coactivator 3 (SRC-3) recruitment by the peroxisome proliferator-activated receptor gamma (PPAR gamma): non-selective agonists. [Related pubchem assays: 1301 (Confirmation screen.), 1048 (Primary screen.)]
# Format: functional
observation-type: EC50

INSERT INTO assay_data (compound, observation_type, result) VALUES
  ('CN=C(S)N1N=C(c2ccccc2)CC1c1ccc(Br)cc1 (centres undefined)', 'EC50', '> 79.4 µM (not active)'),
  ('Cc1ccc(S(=O)(=O)NCC(=O)OCC(=O)c2ccc(Br)s2)cc1', 'EC50', '> 79.4 µM (not active)'),
  ('COc1cccc(C2C=C(c3ccc(Br)s3)Nc3ncnn32)c1OC (centres undefined)', 'EC50', '> 26.5 µM (not active)'),
  ('COc1ccc(C2C(C(=O)c3cccs3)=C(O)C(=O)N2c2nncs2)cc1 (centres undefined)', 'EC50', '> 79.4 µM (not active)');
